# SYSTEM_UNDER_TEST: EXON 20 Insertion (NPG) Ba/F3 Cell (Homo sapiens, UniProt P00533, INS772GNP, cells depend on it)
# Sequence (P00533 with tags, fused parts or gaps INS772GNP): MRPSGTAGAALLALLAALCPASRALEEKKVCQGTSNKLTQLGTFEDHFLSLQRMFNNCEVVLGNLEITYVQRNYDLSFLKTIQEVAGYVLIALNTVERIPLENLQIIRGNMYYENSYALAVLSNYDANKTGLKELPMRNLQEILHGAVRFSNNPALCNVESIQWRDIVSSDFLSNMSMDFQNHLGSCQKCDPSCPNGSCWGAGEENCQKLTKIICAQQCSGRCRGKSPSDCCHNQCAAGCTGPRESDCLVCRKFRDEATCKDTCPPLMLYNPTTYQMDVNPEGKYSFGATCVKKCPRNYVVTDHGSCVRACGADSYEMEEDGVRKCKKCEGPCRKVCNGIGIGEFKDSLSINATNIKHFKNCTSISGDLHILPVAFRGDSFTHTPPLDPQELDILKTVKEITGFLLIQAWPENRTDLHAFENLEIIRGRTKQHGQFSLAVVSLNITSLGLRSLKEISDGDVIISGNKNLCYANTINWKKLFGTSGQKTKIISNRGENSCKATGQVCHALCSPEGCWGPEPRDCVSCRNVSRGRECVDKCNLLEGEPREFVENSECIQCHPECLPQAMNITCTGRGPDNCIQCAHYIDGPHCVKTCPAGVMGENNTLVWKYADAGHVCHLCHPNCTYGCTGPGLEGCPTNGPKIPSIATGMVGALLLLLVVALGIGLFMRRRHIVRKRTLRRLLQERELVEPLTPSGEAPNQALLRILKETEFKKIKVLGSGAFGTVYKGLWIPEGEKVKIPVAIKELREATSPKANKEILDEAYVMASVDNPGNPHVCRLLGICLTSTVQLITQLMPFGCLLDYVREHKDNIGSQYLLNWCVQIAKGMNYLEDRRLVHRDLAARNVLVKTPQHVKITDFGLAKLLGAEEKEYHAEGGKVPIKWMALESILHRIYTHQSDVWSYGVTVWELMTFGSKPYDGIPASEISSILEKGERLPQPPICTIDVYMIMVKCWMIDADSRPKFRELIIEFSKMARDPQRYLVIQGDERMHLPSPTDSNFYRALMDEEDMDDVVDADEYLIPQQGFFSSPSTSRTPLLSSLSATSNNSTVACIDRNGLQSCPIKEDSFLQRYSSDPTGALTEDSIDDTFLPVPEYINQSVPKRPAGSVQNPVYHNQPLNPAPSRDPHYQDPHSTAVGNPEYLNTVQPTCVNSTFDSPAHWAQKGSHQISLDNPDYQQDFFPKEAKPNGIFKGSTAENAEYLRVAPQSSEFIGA
# TEST_METHOD_NOTES: Measurement of inhibitory effect on cancer cell growth (MTT assay)
# MEASUREMENT_SETUP: read-out: Measured value of inhibitory effect on cancer cell growth (IC50), EXON 20 Insertion (NPG) Ba/F3 Cell, Ba/F3 cells expressing EGFR with NPG inserted at D770_N771, 72 hours treatment, read at 595 nm
ASSAY_METRIC: GI50

Below, 5 compounds whose answers are already recorded.
COc1cc(N2CCC(N3CCN(C)CC3)CC2)c(NC(C)C)cc1Nc1ncc(Cl)c(Nc2ccccc2N(C)S(C)(=O)=O)n1 [Example 5]: 300 to 1000 nM
C=CC(=O)Nc1cc(Nc2ncc(Cl)c(Nc3ccc4nccnc4c3NS(C)(=O)=O)n2)c(OC)cc1N(C)CCN(C)C [Example 12]: < 100 nM
C=CC(=O)Nc1cc(Nc2ncc(Cl)c(Nc3ccccc3NS(C)(=O)=O)n2)c(OC)cc1N(C)CCN(C)C [Example 10]: < 100 nM
COc1cc(N(C)CCN(C)C)c(NC(C)C)cc1Nc1ncc(Cl)c(Nc2ccccc2N(C)S(C)(=O)=O)n1 [Example 1]: 300 to 1000 nM
COc1cc(N(C)CCN(C)C)c(NC(C)C)cc1Nc1nc(Nc2ccccc2N(C)S(C)(=O)=O)c2sccc2n1 [Example 2]: 300 to 1000 nM

input: I would be grateful if you could share the reported GI50 for C=CC(=O)Nc1cc(Nc2ncc(Cl)c(Nc3cc(F)ccc3N(C)S(C)(=O)=O)n2)c(OC)cc1N(C)CCN(C)C [Example 13] .
output: < 100 nM

input: I would be grateful if you could share the reported GI50 for C=CC(=O)Nc1cc(Nc2nc(Nc3ccccc3N(C)S(C)(=O)=O)c3sccc3n2)c(OC)cc1N1CCC(N(C)C)CC1 [Example 9] .
output: 100 to 300 nM

input: I would be grateful if you could share the reported GI50 for COc1cc(N2CCC(N(C)C)CC2)c(NC(C)C)cc1Nc1nc(Nc2ccccc2N(C)S(C)(=O)=O)c2sccc2n1 [Example 3] .
output: 300 to 1000 nM

input: I would be grateful if you could share the reported GI50 for COc1cc(N2CCC(N(C)C)CC2)c(NC(C)C)cc1Nc1ncc(Cl)c(Nc2ccccc2N(C)S(C)(=O)=O)n1 [Example 6] .
output: 300 to 1000 nM

input: I would be grateful if you could share the reported GI50 for COc1cc(N2CCC(N3CCN(C)CC3)CC2)c(NC(C)C)cc1Nc1nc(Nc2ccccc2N(C)S(C)(=O)=O)c2sccc2n1 [Example 4] .
output: 300 to 1000 nM

---

# SYSTEM_UNDER_TEST: EXON 20 Insertion (NPG) Ba/F3 Cell (Homo sapiens, UniProt P00533, INS772GNP, cells depend on it)
# TEST_METHOD_NOTES: Measurement of inhibitory effect on cancer cell growth (MTT assay)
# MEASUREMENT_SETUP: read-out: Measured value of inhibitory effect on cancer cell growth (IC50), EXON 20 Insertion (NPG) Ba/F3 Cell, Ba/F3 cells expressing EGFR with NPG inserted at D770_N771, 72 hours treatment, read at 595 nm
Let's look at some molecules and their measured GI50.

input: I would be grateful if you could share the reported GI50 for C=CC(=O)Nc1cc(Nc2nc(Nc3ccccc3N(C)S(C)(=O)=O)c3sccc3n2)c(OC)cc1N(C)CCN(C)C [Example 8] .
output: 100 to 300 nM

input: I would be grateful if you could share the reported GI50 for C=CC(=O)Nc1cc(Nc2ncc(Cl)c(Nc3ccc4nccnc4c3N(C)S(C)(=O)=O)n2)c(OC)cc1N(C)CCN(C)C [Example 11] .
output: < 100 nM

input: I would be grateful if you could share the reported GI50 for C=CC(=O)Nc1cc(Nc2ncc(C(=O)OC(C)C)c(Nc3ccccc3N(C)S(C)(=O)=O)n2)c(OC)cc1N(C)CCN(C)C [Example 15] .
output: < 100 nM

input: I would be grateful if you could share the reported GI50 for C=CC(=O)Nc1cc(Nc2cc(Nc3ccccc3N(C)S(C)(=O)=O)ncn2)c(OC)cc1N(C)CCN(C)C [Example 17] .
output: < 100 nM

input: I would be grateful if you could share the reported GI50 for C=CC(=O)Nc1cc(Nc2ncc(Cl)c(Nc3cc(F)ccc3NS(C)(=O)=O)n2)c(OC)cc1N(C)CCN(C)C [Example 14] .
output: < 100 nM

input: I would be grateful if you could share the reported GI50 for C=CC(=O)Nc1cc(Nc2nc(Nc3ccccc3N(C)S(C)(=O)=O)c3sccc3n2)c(OC)cc1N1CCC(N2CCN(C)CC2)CC1 [Example 7] .
output: 100 to 300 nM

input: I would be grateful if you could share the reported GI50 for C=CC(=O)Nc1cc(Nc2ncc(C(=O)OC3CC3)c(Nc3ccccc3N(C)S(C)(=O)=O)n2)c(OC)cc1N(C)CCN(C)C [Example 16] .
output: < 100 nM
